The reported numbers originate from a melting point compilation (Tetko et al.; mined from patent text by program, amines drawn as free bases though some values may be those of a salt).

Hi there, I'd appreciate the recorded melting point for every entry that follows.

# input Which value of melting point has been reported for Cc1ccc2c(c1)c(N1CCN(C(=O)c3ccco3)CC1)c(C#N)c(=O)n2Cc1ccccc1 in the records?
# output 146 °C

# input Which value of melting point has been reported for O=C(Cn1nc(-c2ccccc2O)nc1-c1ccccc1O)NCC(O)CO (stereo not drawn) in the records?
# output 180 to 181 °C

# input Which value of melting point has been reported for CC(C)(C)OC(=O)N[C@@H](Cc1ccc(O)cc1)C(=O)N[C@H](Cc1ccccc1)C(=O)NCC(=O)O in the records?
# output 105 to 110 °C

* * *

Hi there, I'd appreciate the recorded melting point for every entry that follows.

# input Which value of melting point has been reported for N#Cc1ccc2cc(C(N)=O)[nH]c2c1 in the records?
# output 241 to 242 °C

# input Which value of melting point has been reported for CCOC(=O)N1CCN(C(c2ccccc2)c2ccccc2)CC1(C)Cc1ccc2c(c1)OCCO2 (stereo unspecified) in the records?
# output 153 to 155 °C

# input Which value of melting point has been reported for CCN(C)c1nc(-c2ccncc2)nc2sc(C#N)c(C)c12 in the records?
# output 162 to 164 °C

# input Which value of melting point has been reported for COC(=O)C1=CNC=Cc2c1n(C)c1ccccc21 in the records?
# output 131 to 132 °C

# input Which value of melting point has been reported for CCOC(=O)Cc1ccc(SCc2ccc(NC(C)=O)cc2C(=O)O)cc1 in the records?
# output 170 °C

# input Which value of melting point has been reported for CON(C)C(=O)Nc1ccc(OCCc2ccc(C)cc2C)cc1 in the records?
# output 95 to 95.5 °C

* * *

metric: melting point

# input Which value of melting point has been reported for Cn1cc2c(n1)Nc1ccc(Cl)cc1NC2=O in the records?
# output > 260 °C

# input Which value of melting point has been reported for CCOP(=O)(CN(CCCc1ccccc1)C(=O)Cc1cc(C(C)(C)C)c(O)c(C(C)(C)C)c1)OCC in the records?
# output 134 to 136 °C

# input Which value of melting point has been reported for COc1ccccc1CNc1cc(C(=O)Nc2ccccc2)ccc1OC in the records?
# output 177 to 179 °C

# input Which value of melting point has been reported for CCOC(=O)c1cn(Cc2ccc(OCc3ccccc3)cc2)nc1-c1ccc(F)cc1 in the records?
# output 103 to 104 °C

# input Which value of melting point has been reported for COc1cc(I)cc(OC)c1SC in the records?
# output 103 to 104 °C

# input Which value of melting point has been reported for CCc1cc(-c2cccc(N)n2)c(OC)cc1OCCN(C)C in the records?
# output 109 °C

# input Which value of melting point has been reported for COc1ccc(N(N)Cc2ccc(Cl)cc2)cc1 in the records?
# output 55 °C

# input Which value of melting point has been reported for COc1ccc(S(=O)(=O)n2ccc3ccnc(-c4ccc(Cl)cc4)c32)cc1 in the records?
# output 126 to 128 °C

# input Which value of melting point has been reported for Cc1ccccc1COCn1cc(Cl)cnc1=O in the records?
# output 88 °C

# input Which value of melting point has been reported for Cc1cc(Cn2nnn(-c3cc(C(F)(F)F)cc(C(F)(F)F)c3)c2=O)ccc1N in the records?
# output 129 to 130 °C

# input Which value of melting point has been reported for CC(C)C[C@H](NC(=O)Nc1cccc2ccccc12)C(=O)N[C@H]1CCOC1=O in the records?
# output 213 to 214 °C

# input Which value of melting point has been reported for NC(=O)c1cc([N+](=O)[O-])cc([N+](=O)[O-])c1Cl in the records?
# output 181 to 183 °C

# input Which value of melting point has been reported for CC(=O)NS(=O)(=O)c1ccc(C2=C(c3cccc(F)c3)C(=O)C(C)(C)O2)cc1 in the records?
# output 178 to 179 °C

* * *

metric: melting point

# input Which value of melting point has been reported for NC=C1C(=O)c2ccccc2OC1c1ccccc1 (stereo unspecified) in the records?
# output 149 to 152 °C

# input Which value of melting point has been reported for CCCCOCCOc1ccc(-c2cc3c4c(c2)CCN4CCCC(C(=O)O)=C3)cc1 in the records?
# output 217 to 218 °C

# input Which value of melting point has been reported for Cn1ncnc1COc1nc2c(cc1-c1ccoc1)nnn2-c1c(F)cccc1F in the records?
# output 166 to 169 °C

# input Which value of melting point has been reported for O=C(Nc1cc(Cl)ccc1O)Nc1cc(C(F)(F)F)ccc1Cl in the records?
# output 172 to 173 °C

# input Which value of melting point has been reported for O=C(NCCNCCNC(=O)OCc1ccccc1)OCc1ccccc1 in the records?
# output 73 to 75 °C

# input Which value of melting point has been reported for CCOC(=O)CN(C=C(C(=O)OCC)C(=O)OCC)N=Cc1ccccc1 in the records?
# output 105 to 106 °C

* * *

metric: melting point (°C)
I only need the number, in °C, no unit after it.

# input Which value of melting point has been reported for COC(=O)Nc1ccc2ccccc2c1-c1c(P(=O)(c2ccccc2)c2ccccc2)ccc2ccccc12 in the records?
# output 128

# input Which value of melting point has been reported for Nc1ccccc1C(=O)NCCN1CCC(n2c(=O)[nH]c3cc(Cl)ccc32)CC1 in the records?
# output 227

* * *

Hi there, I'd appreciate the recorded melting point for every entry that follows.

# input Which value of melting point has been reported for Cn1ccc2cc(NC(=O)Oc3ccccc3)ccc21 in the records?
# output 103 to 107 °C

# input Which value of melting point has been reported for CC(C)=CCN1CCC(=C2c3ccccc3CCn3ccnc32)CC1 in the records?
# output 127 °C

# input Which value of melting point has been reported for COc1ccc(CCNCC(O)c2ccc(OCc3ccccc3)c(OCc3ccccc3)c2)cc1OC (configuration not stated) in the records?
# output 79 to 81 °C

# input Which value of melting point has been reported for CN1CCN(C2CC3C4CCC5CC(O)C(N6CCC7(CC6)OCCO7)CC5(C)C4CCC3(C)C2O)CC1 (configuration not stated) in the records?
# output 185 to 187 °C

# input Which value of melting point has been reported for COc1ccc(NC2=NN(c3ccccc3)CC2)cc1 in the records?
# output 153 to 154 °C

# input Which value of melting point has been reported for CCCCC(=O)N[C@H]1CC[C@H](CCN2CCN(c3nccc4c3CCO4)CC2)CC1 in the records?
# output 180 °C

# input Which value of melting point has been reported for O=C(O)CCc1cn(Cc2ccc3cc(OCc4ccccc4F)ccc3c2)nc1-c1ccccc1 in the records?
# output 152 to 153 °C

# input Which value of melting point has been reported for O=C(O)c1ccc(CNS(=O)(=O)c2ccccc2)cc1 in the records?
# output 223 to 227 °C

# input Which value of melting point has been reported for CC(C)OC(=S)SSCCSSC(=S)OC(C)C in the records?
# output 66 °C

# input Which value of melting point has been reported for NC(=NO)C1CCN(c2ccc3c(NC(=O)CC4CCCCC4)c(Cl)ccc3n2)CC1 in the records?
# output 246 to 247 °C

# input Which value of melting point has been reported for CC(C)(C)c1ccc(S(=O)(=O)N2c3ccccc3C[C@H]2C(=O)NCc2ccc(CCC(=O)O)cc2)cc1 in the records?
# output 80 to 85 °C

# input Which value of melting point has been reported for COc1cccc(CN(C)CC(CCN2CCC(NC(C)=O)(c3ccccc3)CC2)c2ccc(Cl)c(Cl)c2)c1 (configuration not stated) in the records?
# output 59 to 61 °C

# input Which value of melting point has been reported for CC(C)CN(CC(C)C)c1ccc(C(=O)c2ccccc2)cc1[N+](=O)[O-] in the records?
# output 80 to 81 °C

# input Which value of melting point has been reported for c1ccc2c(c1)CCc1c(N3CCN(Cc4c[nH]c5ncccc45)CC3)n[nH]c1-2 in the records?
# output 245 to 247 °C

# input Which value of melting point has been reported for N#Cc1c[nH]c2cc(-c3ccccc3)sc2c1=O in the records?
# output > 300 °C

# input Which value of melting point has been reported for N#Cc1ccc(C(O)Cc2ccc(C#N)cc2[N+](=O)[O-])cc1 (configuration not stated) in the records?
# output 147 to 153 °C

# input Which value of melting point has been reported for O=C(O)CSCCSc1ccc(O)cc1 in the records?
# output 105 °C

# input Which value of melting point has been reported for CC(=O)OC(c1nccs1)(c1nccs1)C(F)(F)F in the records?
# output 82 to 84 °C

# input Which value of melting point has been reported for Cc1ccccc1-c1cc(=O)c2cc(O)ccc2o1 in the records?
# output 180 °C

# input Which value of melting point has been reported for COC(=O)C=Cc1ccc(Cl)c([N+](=O)[O-])c1 in the records?
# output 107 °C

# input Which value of melting point has been reported for CN(C)C=NS(=O)(=O)c1cc(C(C)(C)C)cc(C=O)c1O in the records?
# output 182 to 183 °C

# input Which value of melting point has been reported for Nc1cccc2c1C(=O)N1CCC[C@H]1c1c(C(=O)OC3CCCCC3)ncn1-2 in the records?
# output 211 to 212 °C
